B1: TMEM175 (parent)
chain: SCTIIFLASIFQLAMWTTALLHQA

Variants of: B1
Assay: protein stability index of a GFP-peptide fusion (GPS, HEK-293T) (PSI 1-6); higher = more stable;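 note: lentivirally expressed fusions sorted by FACS into six bins by GFP to DsRed ratio, PSI derived from sequencing read proportions per bin multiplied by bin number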
Settings: c terminus: a fixed tail appended
The following variants are shown together with reported protein stability index values.
Answer with a number only.

In plain terms, SCTIIFLASIFQLADWTTALLHQA [M15D] has a documented protein stability index of 3.28

Query SCTIIFLASIFQLAMWTTALLTQA [H22T] yields protein stability index of 2.65

// sample SCTIIFLASIFQLAMWTTALLQQA [H22Q] , its protein stability index was 2.97

Reported protein stability index ( SCTIIFLASIFQLAMWTTWLLHQA [A19W] ) = 3.12

Memo: SCTIIFLASIFQLALWTTALLHQA [M15L] , reported protein stability index: 2.53

Lookup result for SCTIIFLASIFQLAMWTTASLHQA [L20S] ; measured protein stability index: 3.1

// protein stability index value for SCTIIFLASIFQLAMWTTALLHHA [Q23H] : 2.71

Form field protein stability index, entry SCTIIFLQSIFQLAMWTTALLHQA [A8Q] : 3.65

More entries:
response.value for SCTIIFLAYIFQLAMWTTALLHQA [S9Y] (field: protein stability index) = 2.66

Documented protein stability index of SCTIIFLASIFQLAMWTHALLHQA [T18H] : 2.85

GET /value?item= SCTIIFLASIFQLAMWTTALLHQS [A24S] &field=protein stability index returns 1.55

Form: variant = SCTIIFLASIFQLAMWTTALYHQA [L21Y] ; protein stability index = 3.71

# protein stability index (variant: SCTIIFLCSIFQLAMWTTALLHQA [A8C] ) is 2.98

Lookup result for SCTIIFLASIFQLAMNTTALLHQA [W16N] ; measured protein stability index: 3.23

The recorded protein stability index for SCTIIFLASIFQLAMWTTALLAQA [H22A] is 3.84
